experiment: Partition coefficient (log P 1-octanol/water) of organic co-solvents
Attribute measured: Partition Coefficient (log P1-octanol/water)

Past entries and their recorded results:
1. CC1(C)C(=O)N(CCO)C(=O)N1CCO [di-(2-hydroxyethy)-5,5-dimethylhydantoin]    −1.39
2. O [water]    −0.825

P = CCCCCCCCO [Ink 1-octanol, 1-octanol]
Q = OCCOCCOCCO [triethylene glycol]
R = O=C1CCCN1CCO [N-(2-hydroxyethyl)-2-pyrrolidinone]
Request: Hi! Can you put these in order of Partition Coefficient (log P1-octanol/water), lowest number first? I would appreciate it if you listed the labels in the requested order.
Result: Q, R, P
